The values you see were collected from ChEMBL document CHEMBL4304757.

# target: Alpha glucosidase (Homo sapiens, UniProt O43451+P10253+P14410+Q2M2H8)
# test-protocol: Inhibition of alpha-glucosidase (unknown origin) using p-nitrophenyl-alpha-d-glucopyranoside as substrate preincubated for 5 mins followed by substrate addition measured after 5 mins
# Assay type: protein assay
The following compounds are listed with their measured IC50 values.

Example results:
test-smiles	target	IC50
Clc1ccc(-c2nnc(/N=C/c3ccc(OCc4ccccc4)cc3)s2)cc1	Alpha glucosidase (Homo sapiens, UniProt O43451+P10253+P14410+Q2M2H8)	2300 to 25000 nM
CN(C)c1ccc(-c2nnc(N)s2)cc1	Alpha glucosidase (Homo sapiens, UniProt O43451+P10253+P14410+Q2M2H8)	2300 to 38000 nM
Cc1ccccc1/C=N/NC(=O)c1cc2ccccc2oc1=O	Alpha glucosidase (Homo sapiens, UniProt O43451+P10253+P14410+Q2M2H8)	1100 to 36000 nM
COc1cccc(-c2nnc(N)s2)c1OC	Alpha glucosidase (Homo sapiens, UniProt O43451+P10253+P14410+Q2M2H8)	2300 to 38000 nM
O=C(N/N=C/c1cccc(O)c1O)c1cc2ccccc2oc1=O	Alpha glucosidase (Homo sapiens, UniProt O43451+P10253+P14410+Q2M2H8)	1100 nM
COc1ccc(Br)cc1/C=N/c1nnc(-c2ccc(Cl)cc2)s1	Alpha glucosidase (Homo sapiens, UniProt O43451+P10253+P14410+Q2M2H8)	2300 to 25000 nM

Entry `Nc1nnc(-c2c3ccccc3cc3ccccc23)s1` , tested on Alpha glucosidase (Homo sapiens, UniProt O43451+P10253+P14410+Q2M2H8), has a reported IC50 of 2300 to 38000 nM

Entry `O=C(N/N=C/c1ccc(F)cc1)c1cc2ccccc2oc1=O` , tested on Alpha glucosidase (Homo sapiens, UniProt O43451+P10253+P14410+Q2M2H8), has a reported IC50 of 1100 to 36000 nM

Entry `O=C(N/N=C/c1ccc(O)cc1O)c1cc2ccccc2oc1=O` , tested on Alpha glucosidase (Homo sapiens, UniProt O43451+P10253+P14410+Q2M2H8), has a reported IC50 of 1100 to 36000 nM

---

# target: Alpha glucosidase (Homo sapiens, UniProt O43451+P10253+P14410+Q2M2H8)
# test-protocol: Inhibition of alpha-glucosidase (unknown origin) using p-nitrophenyl-alpha-d-glucopyranoside as substrate preincubated for 5 mins followed by substrate addition measured after 30 mins
# Assay type: protein assay
readout-label: IC50

Example results:
test-smiles	IC50
Cc1cccc(N2C(=O)/C(=C/c3ccc(F)cc3)S/C2=N\NC(=O)c2cc3ccccc3oc2=O)c1C	> 100000 nM
Cc1ccccc1N1C(=O)/C(=C/c2ccc(F)cc2)S/C1=N\NC(=O)c1cc2ccccc2oc1=O	90 to 1600 nM

Entry `Cc1ccccc1C(=O)/N=c1\scc(C)n1-c1cc(Cl)c(Cl)cc1Cl` , tested on Alpha glucosidase (Homo sapiens, UniProt O43451+P10253+P14410+Q2M2H8), has a reported IC50 of 150 nM

Entry `Cc1ccc(N2C(=O)/C(=C/c3ccc(F)cc3)S/C2=N\NC(=O)c2cc3ccccc3oc2=O)c(C)c1` , tested on Alpha glucosidase (Homo sapiens, UniProt O43451+P10253+P14410+Q2M2H8), has a reported IC50 of 90 to 1600 nM

Entry `Cc1ccc(N2C(=O)/C(=C/c3ccc(F)cc3)S/C2=N\NC(=O)c2cc3ccccc3oc2=O)cc1C` , tested on Alpha glucosidase (Homo sapiens, UniProt O43451+P10253+P14410+Q2M2H8), has a reported IC50 of 90 to 1600 nM

---

# test-protocol: Inhibition of yeast alpha-glucosidase using p-nitrophenyl-alpha-d-glucopyranoside as substrate preincubated with enzyme followed by substrate addition measured after 30 mins by spectrophotometric analysis
# Set-up: species or system Saccharomyces cerevisiae
readout-label: IC50 (µM)
Number in µM, nothing else.

IC50 in this record for `O=C(CCCSc1nc2ccccc2s1)Nc1cccc2ccccc12` : 10

---

# test-protocol: Inhibition of yeast alpha-glucosidase using p-nitrophenyl-alpha-d-glucopyranoside as substrate preincubated for 15 mins followed by substrate addition measured after 30 mins
# Design: species or system Saccharomyces cerevisiae
pIC50: −log10 of the molar value.
Label YES when pIC50 >= 5; otherwise NO.

compound	label-class
Cc1ccc(C(CC(=O)c2ccccc2)C(C(=O)Nc2ccccn2)C(=O)Nc2ccccn2)cc1 (stereo not given)	NO
c1cncc(Cn2cc(Cn3c4ccccc4c4ccccc43)nn2)c1	YES
Cc1ncc([N+](=O)[O-])n1Cn1cc(Cn2c3ccccc3c3ccccc32)nn1	YES
O=C(c1ccc(O)cc1)C1Cc2c(ccc3ccccc23)O1 (stereo not given)	YES

Consider the additional compound presented here.
Q: Hello, I need to know if `c1ccc2c(c1)c1ccccc1n2Cc1cn(Cc2ccc(Cn3cc(Cn4c5ccccc5c5ccccc54)nn3)cc2)nn1` has measured pIC50 not below 5. Thanks!
Result: YES

---

# target: Alpha glucosidase (Homo sapiens, UniProt O43451+P10253+P14410+Q2M2H8)
# test-protocol: Inhibition of alpha-glucosidase (unknown origin) using pNPG as substrate preincubated for 10 mins followed by substrate addition measured after 30 mins
# Assay type: protein assay
pIC50: −log10 of the molar value.
readout-label: pIC50

test-smiles	pIC50
O=C(N/N=C/c1ccc(Cl)cc1)c1cc2ccccc2[nH]1	3.65 to 5.64
COc1ccc(O)c(/C=N/NC(=O)c2cc3ccccc3[nH]2)c1	3.65 to 5.64
O=C(N/N=C/c1ccc(Br)c(F)c1)c1cc2ccccc2[nH]1	3.65 to 5.64
Clc1cccc(-c2[nH]c3ccccc3c2-c2nc(-c3ccccc3)c(-c3ccccc3)n2-c2ccccc2)c1	4.01 to 5.08
O=C(N/N=C/c1cc(O)cc(O)c1)c1cc2ccccc2[nH]1	3.65 to 5.64

# ---- query molecule ----
Entry `O=C(N/N=C/c1cc(O)ccc1O)c1cc2ccccc2[nH]1` , tested on Alpha glucosidase (Homo sapiens, UniProt O43451+P10253+P14410+Q2M2H8), has a reported pIC50 of 3.65 to 5.64

---

The following compounds are listed with their measured pIC50 values.
# test-protocol: Inhibition of yeast alpha-glucosidase
# Parameters: species or system Saccharomyces cerevisiae
pIC50: −log10 of the molar value.

Example results:
compound	pIC50
O=c1cc(-c2cccc(OCc3ccc([N+](=O)[O-])cc3)c2)oc2ccccc12	4.06 to 5.92
Cc1cc2c(c(=O)[nH]1)C(=O)O/C2=C\c1cccs1	5.00 to 6.62
COc1ccc(COc2cccc(-c3cc(=O)c4ccccc4o3)c2)cc1	4.06 to 5.92
Cc1cc2c(c(=O)[nH]1)C(=O)O/C2=C\c1ccc(O)c(O)c1	4.28 to 6.00
N#Cc1ccc(COc2cccc(-c3cc(=O)c4ccccc4o3)c2)cc1	4.06 to 5.92
COc1ccc(/C=C/C(=O)C2=C(/C=C/c3ccc(OC)c(O)c3)Oc3[nH]c(=O)[nH]c(=O)c3C2c2cc3ccccc3[nH]2)cc1O (stereo unspecified)	3.92 to 4.01
Cc1cc2c(c(=O)[nH]1)C(=O)O/C2=C\c1cc(Br)cs1	6.62
O=c1cc(-c2cccc(OCc3ccccc3)c2)oc2ccccc12	4.06 to 5.92

pIC50 in this record for COc1ccc(/C=C/C(=O)C2=C(/C=C/c3ccc(OC)c(O)c3)Oc3[nH]c(=O)[nH]c(=O)c3C2c2cccc([N+](=O)[O-])c2)cc1O (stereo unspecified) : 3.92 to 4.01

pIC50 in this record for `Cc1cc2c(c(=O)[nH]1)C(=O)O/C2=C\c1ccccc1` : 4.28 to 6.00

pIC50 in this record for `O=c1cc(-c2cccc(OCc3cccc(F)c3F)c2)oc2ccccc12` : 5.47

pIC50 in this record for `Cc1cc2c(c(=O)[nH]1)C(=O)O/C2=C\c1ccc(Br)cc1` : 4.28 to 6.00

pIC50 in this record for `O=c1cc(-c2cccc(OCc3cccc(SC(F)(F)F)c3)c2)oc2ccccc12` : 4.06 to 5.92

pIC50 in this record for `Cc1cc2c(c(=O)[nH]1)C(=O)O/C2=C\c1nccn1C` : 6.05

pIC50 in this record for `COc1ccc(-c2csc(/C=C3\OC(=O)c4c3cc(C)[nH]c4=O)c2)cn1` : 4.07 to 5.08

pIC50 in this record for `Cc1cc2c(c(=O)[nH]1)C(=O)O/C2=C\c1cc(-c2ccnc(N3CCN(C(=O)OC(C)(C)C)CC3)c2)cs1` : 4.07 to 5.08

---

# target: Alpha glucosidase (Homo sapiens, UniProt O43451+P10253+P14410+Q2M2H8)
# test-protocol: Inhibition of alpha-glucosidase (unknown origin)
# Assay type: protein assay
readout-label: IC50

test-smiles	IC50
O=C(C[C@@H](c1cccs1)c1c[nH]c2ccccc12)c1ccc2ccccc2c1	4.3 to 43 µM
Cn1cc(C(c2ccc(-c3nnc(-c4c[nH]c5ccccc45)o3)cc2)c2cn(C)c3ccccc23)c2ccccc21	20 to 292 µM

IC50 in this record for `CCOc1ccccc1NC(=O)Cn1cc(Cn2c(-c3cccc(Br)c3)nc(-c3ccccc3)c2-c2ccccc2)nn1` : 15 µM

IC50 in this record for `COc1ccccc1-c1nc(-c2ccccc2)c(-c2ccccc2)n1Cc1cn(CC(=O)Nc2ccc(C)cc2)nn1` : 15 to 48 µM
